Test protocol: protein stability index of a GFP-peptide fusion (GPS, HEK-293T) (PSI 1-6); higher = more stable;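 further: 24-mer peptide tiles fused after GFP, lentivirally expressed, FACS-sorted into six equal bins by GFP/DsRed ratio, decoded by Illumina sequencing, PSI is the read-weighted mean bin number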
Assay conditions: treatment: DMSO; c terminus: a fixed tail appended
Let's look at some sequences and their measured protein stability index.
Metric name: protein stability index

[[record]]
query_sequence = "HCKAGLGRTGTLIACYVMKHYRFT [CDC14A]"
metric_name = "protein stability index"
recorded_number = 3.52

[[record]]
query_sequence = "KLFYFKIWAFLDVSFVERILKSQK [FBXO39]"
metric_name = "protein stability index"
recorded_number = 2.62

[[record]]
query_sequence = "KDGVTMAPAFRLSLKAKVSDNMSH [FSD1]"
metric_name = "protein stability index"
recorded_number = 3.56

[[record]]
query_sequence = "YKCLECGKAFSQNSGLINHQRIHT [ZNF24]"
metric_name = "protein stability index"
recorded_number = 4.95

[[record]]
query_sequence = "PQVPQPPSPAAVPRPPSNPPARGT [TRAF3IP2]"
metric_name = "protein stability index"
recorded_number = 5.2

[[record]]
query_sequence = "SLPRDRVLGFLIENFKGLAIPYLE [VPS39]"
metric_name = "protein stability index"
recorded_number = 3.24

[[record]]
query_sequence = "PGFGCKAVRCASGRCTVRDFIHRH [SDE2]"
metric_name = "protein stability index"
recorded_number = 2.08


Cited source for all entries: the supplement of paper PMC10567573
